The following sequences are listed with their measured PBM 8-mer E-score values.
# Test system: 2Sb-muMax20 (muMax20 with two 1,3-bis(methyl)benzene Cys staples, A13C/A17C and Q88C/A92C, C-terminal Lys)
# run_description: PBM 8-mer E-score (E-score (rank enrichment, -0.5 to 0.5)); higher = stronger preferential binding
In all, about 33,000 sequences were measured (“E-score (rank enrichment, -0.5 to 0.5)”: median about -0.0028, highest 2% from about 0.23 on). This excerpt belongs to a sample that is enriched for the highest values.
# output: bare number, no unit

Here is how some sequences turned out for PBM 8-mer E-score.
AACGAGAT = -0.0543
GCCAATTA = 0.127
AAATTATA = 0.253
GGGTGGGA = 0.314
CCAACAGC = -0.068

Can you look up the measured PBM 8-mer E-score of `AAATTATG` for me?
0.168

Endpoint output: PBM 8-mer E-score of `GCAGCACC` . Value?
-0.116

Given `AACGAGAA` , state its recorded PBM 8-mer E-score.
0.238

----------
# Test system: 2Sb-muMax20 (muMax20 with two 1,3-bis(methyl)benzene Cys staples, A13C/A17C and Q88C/A92C, C-terminal Lys)
# run_description: PBM 8-mer E-score (E-score (rank enrichment, -0.5 to 0.5)); higher = stronger preferential binding
In all, about 33,000 sequences were measured (“E-score (rank enrichment, -0.5 to 0.5)”: median about -0.0028, highest 2% from about 0.23 on). The full list was thinned out, with the highest values kept by preference.
property_measured: PBM 8-mer E-score

GACTGTCC = -0.111
AGTTTCAC = 0.045
ACCCCACT = 0.293

Continue with the sequence presented below.
Returns the measured PBM 8-mer E-score for the input sequence. Input: `AACCCACT`
0.059

----------
# System: 2Sb-muMax20 (muMax20 with two 1,3-bis(methyl)benzene Cys staples, A13C/A17C and Q88C/A92C, C-terminal Lys)
# run_description: PBM 8-mer E-score (E-score (rank enrichment, -0.5 to 0.5)); higher = stronger preferential binding
The full ranking holds about 33,000 sequences; the median of “E-score (rank enrichment, -0.5 to 0.5)” is about -0.0028, and the highest 2% start at about 0.23. Only a selection was taken, and the highest values are over-represented in it overall.
Label MET when PBM 8-mer E-score is at or above 0.06; anything below gets NOT MET.

Previously resolved entries follow.
AATACGAG = MET
CATACGAG = NOT MET
AGCTAAAA = NOT MET
AGATGCGC = MET
GCGAGACA = NOT MET

Check the entry `GCCGTCAA` : does PBM 8-mer E-score equal or exceed 0.06?
NOT MET

Reported PBM 8-mer E-score reaches at least 0.06 for `TTATGAAA` ?
NOT MET

----------
# System: 2Sb-muMax20 (muMax20 with two 1,3-bis(methyl)benzene Cys staples, A13C/A17C and Q88C/A92C, C-terminal Lys)
# run_description: PBM 8-mer E-score (E-score (rank enrichment, -0.5 to 0.5)); higher = stronger preferential binding
Whole data set: some 33,000 sequences, median “E-score (rank enrichment, -0.5 to 0.5)” near -0.0028, cut for the highest 2% near 0.23. This excerpt belongs to a sample that is enriched for the highest values.
Parameter threshold = 0.05. Response is true when PBM 8-mer E-score meets or exceeds it, else false.

Solved entries (count: 3):
ACAATTAC = true
ATAATGGA = true
CACATGTG = true

For this sequence, is measured PBM 8-mer E-score 0.05 or higher? `ATCTACTG`
false

Is reported PBM 8-mer E-score greater than or equal to 0.05 here: `ATGAGGTG`
true

Please tell me: is the sequence `ATCGCGAA` at or over 0.05 in terms of PBM 8-mer E-score?
false
